Experiment: J3T Cancer Cell Toxicity qHTS against the NCATS CANVASS Library (AID 1347371)
Settings: J3T dog glioma viability, ATP luminescence, 72 h; series mostly up to 46.1 µM
Results filed as inconclusive are left out. The source made the active and inactive calls. Calls follow the shape of the dose curve; as a rule, active = well fitted cell-killing curve with a large enough effect; inconclusive = small, poorly fitted or top-dose-only effect; inactive = flat fitted curve, though single readings scatter. Numbered stars: 1 amine (or outer) side, 2 acyl side, 3 side chain; on linkers, the order of the positions; unused ones are H or OH. Bridge positions count the residues as written; N and C are the ends. Square brackets hold non-standard residues; d marks the D form. Peptide text beside a SMILES is read from it. ξ: configuration not given here. Phe(3R-OH) = O=C([C@@H](N[*:1])[C@H](O[*:3])c1ccccc1)[*:2]; NMeTrp(4-OMe) = CN[C@@H](Cc1c[nH]c2cccc(OC)c12)C(=O)O; ξThr(3R)(O-yl) = C[C@@H](O[*:3])C(N[*:1])C(=O)[*:2]; NMeThr(3ξ) = CN[C@H](C(=O)O)C(C)O; NMeL = CN[C@@H](CC(C)C)C(=O)O; NMeV = CN[C@H](C(=O)O)C(C)C; ξIle = CC[C@H](C)C(N)C(=O)O; ξV = CC(C)C(N)C(=O)O
Assign a class; possible classes are active, inactive

Worked examples, 2 molecules total:
{"columns": ["molecule", "assignedClass"],
 "data": [
  ["CC1=CC2=C[C@H](C)C[C@@]23OC(=C(C)C3=O)CC(C)(C)/C=C/C1=O", "active"],
  ["C/C(=C\\[C@H](C)C(=O)CCCC1CC(=O)NC(=O)C1)C(O)[C@@H](C)[C@H](O)C/C=C/CC/C=C/C(=O)O (stereo not given in full)", "inactive"]
]}

Fill in: this test's call for CC[C@H](C)C(NC(=O)[C@@H](NC)C(C)C)C(=O)NC1C(=O)N(C)[C@@H](C(C)O)C(=O)N[C@@H](C(C)C)C(=O)N(C)[C@@H](CC(C)C)C(=O)NC(C(C)C)C(=O)N(C)[C@@H](C(C)C)C(=O)N(C)[C@@H](Cc2c[nH]c3cccc(OC)c23)C(=O)N[C@@H](C(C)C)C(=O)N[C@@H]([C@H](O)c2ccccc2)C(=O)N[C@@H](C(C)C)C(=O)O[C@@H]1C (stereo partly drawn) (H-[NMeV][ξIle][ξThr(3R)(O-yl)][NMeThr(3ξ)]V[NMeL][ξV][NMeV][NMeTrp(4-OMe)]V[Phe(3R-OH)]V; ester 3-C) is ___ inactive

Fill in: this test's call for C/C1=C\CC(=O)/C=C/C=C\c2csc(n2)[C@@H](C)NC(=O)C[C@@](S)([C@@H](C)C(=O)O)CC1 is ___ inactive

Fill in: this test's call for C=C(NC(=O)c1csc(-c2nc3c(cc2O)-c2nc(cs2)C(=O)NC(C(C)O)C(=O)N/C(=C(\C)O)c2nc(cs2)C(=O)NC2c4nc(cs4)C(=O)NC(COC(=O)c4c5c6c(cccc6n4O)COC(=O)[C@@H](OC4C[C@](C)(O)[C@H](N(C)C)[C@H](C)O4)C2OC5)c2nc-3cs2)n1)C(N)=O (stereo not given in full) is ___ inactive

* * *

Tested on: CASKI
Test: Primary qHTS to identify gynecologic anti-cancer compounds using libraries of approved drugs and bioactive compounds (AID 1345084); also: nearly all actives have a fitted effect of over 55% in size
Conditions: Gynecologic cancer cell panel viability, ATPlite luminescence, 48 h; series mostly up to 57.5 µM
Records with an inconclusive call do not appear. The source made the active and inactive calls. The call rests on the fitted dose curve; in most records, active means well fitted cell-killing curve with a large enough effect; inconclusive means small, poorly fitted or top-dose-only effect, or effect the other way; inactive means flat fitted curve, though single readings scatter.
parameter: outcome

{"columns": ["compound", "recordedValue"],
 "data": [
  ["CCN(CC)Cc1cccc(/C=C/c2nc3ccc(F)cc3c(=O)n2-c2ccccc2Cl)n1", "inactive"],
  ["CC1OC2O[C@H]3[C@@H](OCC(O)[C@H]3O)OC(=O)C34CCC(C)(C)CC3C3=CCC5C6(C)CC(O)C(OC7OC(CO)C(O)C(O)C7O[C@@H]7OC[C@H](OC(=O)CC(C)(O)CC(=O)OC1C(OC1OCC(O)C(O)C1O)C2O)[C@@H](O)[C@H]7O)C(C)(CO)C6CCC5(C)C3(C)CC4 (stereo partly drawn)", "inactive"],
  ["COc1cc2nc(-c3cc(F)ccc3O)nc(N[C@@H]3CNC[C@H]3C(C)(C)O)c2cc1OC", "inactive"]
]}
